Test system: Mus musculus
Experiment: Toxicity in Swiss albino mouse implanted with mouse EAC cells assessed as RBC count at 0.5 mg/mouse administered for 9 days (reference value: 3.59 10^6/mm3)
Assay type: organism-based
Conditions: in vivo, 216 h
REPORTED_METRIC: Activity (×10⁶ /mm3)
Field format: number, assumed ×10⁶ /mm3, no unit text.

COMPOUND	Activity, ×10⁶ /mm3
CCOC(=O)C1=C(N/C=N/c2ncc(-c3ccccc3)s2)Nc2[nH]nc(C)c2C1c1ccc(N(C)C)cc1 (stereo unspecified)	4.85
CCOC(=O)C1=C(NN=C(C#N)C#N)Nc2[nH]nc(C)c2C1c1ccc(N(C)C)cc1 (stereo unspecified)	5.14
CCOC(=O)C1=C(NN=C(C(C)=O)C(C)=O)Nc2[nH]nc(C)c2C1c1ccc(N(C)C)cc1 (stereo unspecified)	5.65
COc1cccc2c1C(=O)c1c(O)c3c(c(O)c1C2=O)C[C@@](O)(C(=O)CO)C[C@@H]3O[C@H]1C[C@H](N)[C@H](O)[C@H](C)O1	5.32

In plain terms, CCOC(=O)C1=C(N/C=N/c2cccnc2Cl)Nc2[nH]nc(C)c2C1c1ccc(N(C)C)cc1 (stereo unspecified) has a documented Activity of 5.78

Data point: CCOC(=O)C1=C(N)Nc2[nH]nc(C)c2C1c1ccc(N(C)C)cc1 (stereo unspecified) ; Activity = 6.26

###

Assay: Displacement of methyl green from DNA (unknown origin) incubated in dark for 24 hrs
REPORTED_METRIC: pIC50
A value of pIC50 is the negative decimal logarithm of a concentration given in moles per litre.

Worked cases, answers included:
COMPOUND	pIC50
CCOC(=O)C1=C(N/C=N/c2ncc(-c3ccccc3)s2)Nc2[nH]nc(C)c2C1c1ccc(N(C)C)cc1 (stereo not given)	4.13
CCOC(=O)C1=C(N/N=C(/C(=O)Br)c2ccc(Cl)cc2)Nc2[nH]nc(C)c2C1c1ccc(N(C)C)cc1 (stereo not given)	4.09

Now for another entry.
Per the record, CCOC(=O)C1=C(N/N=C(/C(C)=O)C(=O)OCC)Nc2[nH]nc(C)c2C1c1ccc(N(C)C)cc1 (stereo not given) has pIC50 of 4.17

###

Test system: Staphylococcus aureus
Test: Antibacterial activity against Staphylococcus aureus ATCC 29213 after 24 hrs by two-fold serial dilution method
Format: functional
Conditions: ATCC 29213, 24 h
Overview of recorded MIC for various molecules
Form entry: value (µM) — number only.

Please review the following examples before continuing.
MOLECULE	ENDPOINT_RESULT
CCOC(=O)C1=C(NN=C(C#N)C#N)Nc2[nH]nc(C)c2C1c1ccc(N(C)C)cc1 (stereo not given)	4780
CCOC(=O)C1=C(N/N=C(\c2ccc([N+](=O)[O-])cc2)N2CCN(c3ccc(F)cc3)CC2)Nc2[nH]nc(C)c2C1c1ccc(N(C)C)cc1 (stereo not given)	749

Next molecule, please.
The measured MIC associated with CCOC(=O)C1=C(NN=C(C(C)=O)C(C)=O)Nc2[nH]nc(C)c2C1c1ccc(N(C)C)cc1 (stereo not given) reads 2210
